Every entry's value here was drawn from ChEMBL document CHEMBL2440096.

- System: A549
- EXPERIMENT: Antiproliferative activity against human A549 cells by SRB assay
- Type: functional, cell-based
- MEASUREMENT PARAMETERS: read-out: IC50
ATTRIBUTE MEASURED: pIC50
# pIC50 is unitless: minus log10 of the molar concentration; print number only

Please review the following examples before continuing.
O=C(CCl)N1N=C(c2ccccc2)NN=C1c1ccccc1; 5.73
CC(=O)N1N=C(c2ccc(C(F)(F)F)cc2)NN=C1c1ccc(C(F)(F)F)cc1; 5.01
c1ccc(C2=NNC(c3ccccc3)=NN2)cc1; 4.70
CC1=NN(C(=O)Nc2cccc(C)c2)C(C)=NN1C(=O)Nc1cccc(C)c1; 6.24
O=S(=O)(c1ccccc1)N1N=C(c2ccccc2)N(S(=O)(=O)c2ccccc2)N=C1c1ccccc1; 4.13
CC(=O)N1N=C(c2ccccc2)NN=C1c1ccccc1; 4.35
CC1=NN(C(=O)Nc2cccc(O)c2)C(C)=NN1C(=O)Nc1cccc(O)c1; 5.26
CC(C)CCOC(=O)N1N=C(c2ccccc2)NN=C1c1ccccc1; 4.35

Turning now to a further record.
Input: // lookup pIC50 for CC(C)C(=O)N1N=C(c2ccccc2)NN=C1c1ccccc1
Output: 5.65

====

- Tested on: A549
- EXPERIMENT: Antiproliferative activity against human A549 cells by SRB assay
- Format: functional, cell-based
- MEASUREMENT PARAMETERS: read-out: IC50
Each entry below lists one item and its recorded IC50 value.
Supply the numeric figure in µM, leaving out any unit text.

Cc1ccc(S(=O)(=O)N2N=C(c3ccccc3)N(S(=O)(=O)c3ccc(C)cc3)N=C2c2ccccc2)cc1; 85.8
COC(=O)N1N=C(c2cccc(Cl)c2)N(C(=O)OC)N=C1c1cccc(Cl)c1; 89
COc1cc(NC(=O)N2N=C(C)N(C(=O)Nc3cc(OC)cc(OC)c3)N=C2C)cc(OC)c1; 0.035
CC1=NN(C(=O)Nc2cc(C)cc(C)c2)C(C)=NN1C(=O)Nc1cc(C)cc(C)c1; 3.66
COC(=O)N1N=C(c2cccc([N+](=O)[O-])c2)N(C(=O)OC)N=C1c1cccc([N+](=O)[O-])c1; 83.6
CC1=NN(C(=O)Nc2ccccc2O)C(C)=NN1C(=O)Nc1ccccc1O; 57.3

Now for another entry.
Input: Query: IC50; subject: Oc1ccc(Cl)cc1C1=NN=C(c2cc(Cl)ccc2O)NN1
Output: 13.2

====

- System: A549
- EXPERIMENT: Antiproliferative activity against human A549 cells by SRB assay
- Assay type: functional, cell-based
- MEASUREMENT PARAMETERS: read-out: IC50
Examples of compounds with documented IC50 follow.
All answers are understood in µM, so give the number only.

Clc1ccc(CC2=NNC(Cc3ccc(Cl)cc3)=NN2)cc1; 51.8
CC(C)C(=O)N1N=C(c2ccc(C(F)(F)F)cc2)NN=C1c1ccc(C(F)(F)F)cc1; 31.6
CCCC1=NN(C(=O)Nc2cccc(C)c2)C(CCC)=NN1C(=O)Nc1cccc(C)c1; 1
CCCCCOC(=O)N1N=C(c2ccccc2)NN=C1c1ccccc1; 40.8
CCOC(=O)N1N=C(c2ccc(C(F)(F)F)cc2)NN=C1c1ccc(C(F)(F)F)cc1; 0.575
CCC(=O)N1N=C(c2ccccc2)NN=C1c1ccccc1; 48.3

Next:
Input: IC50 lookup needed for COC(=O)N1N=C(c2ccc(Cl)cc2Cl)N(C(=O)OC)N=C1c1ccc(Cl)cc1Cl , thanks.
Output: 79.3

====

- System: A549
- EXPERIMENT: Antiproliferative activity against human A549 cells by SRB assay
- Type: functional, cell-based
- MEASUREMENT PARAMETERS: read-out: IC50
ATTRIBUTE MEASURED: pIC50
On this scale, pIC50 is minus log10 of a concentration expressed in M (mol/L).

Before answering, review these 3 worked examples.
CCCC1=NN(C(=O)Nc2ccccc2)C(CCC)=NN1C(=O)Nc1ccccc1; 5.27
CCCCN1N=C(C)N(CCCC)N=C1C; 4.16
CCC1=NN(C(=O)Nc2cccc(C)c2)C(CC)=NN1C(=O)Nc1cccc(C)c1; 6.19

Input: Sample COC(=O)N1C(c2ccc(C(F)(F)F)cc2)=NN=C(c2ccc(C(F)(F)F)cc2)N1C(=O)OC — what was its pIC50?
Output: 5.68

Input: Please look up its pIC50: COC(=O)N1N=C(c2ccc(Cl)cc2)N(C(=O)OC)N=C1c1ccc(Cl)cc1
Output: 4.12

Input: Can you share its pIC50? I mean this molecule: CCOC(=O)N1C(c2ccccc2)=NN=C(c2ccccc2)N1C(=O)OCC
Output: 4.58

====

Reported IC50 values follow for various compounds
- Test system: A549
- EXPERIMENT: Antiproliferative activity against human A549 cells by SRB assay
- Type: functional, cell-based
- MEASUREMENT PARAMETERS: read-out: IC50
// note: answer is a bare numeric in µM

Some solved entries appear below for comparison.
O=C(CCl)N1N=C(c2ccc(C(F)(F)F)cc2)NN=C1c1ccc(C(F)(F)F)cc1; 8.53
COc1ccc(C2=NN(S(=O)(=O)c3ccccc3)C(c3ccc(OC)cc3)=NN2S(=O)(=O)c2ccccc2)cc1; 58.8

Input: # lookup: IC50 of COc1ccccc1NC(=O)N1N=C(c2ccccc2)NN=C1c1ccccc1
Output: 44.9

Input: Which IC50 is listed for COC(=O)N1N=C(c2ccccc2)NN=C1c1ccccc1 ?
Output: 39.5

Input: Fill in: IC50 of CCOC(=O)N1C(c2ccc(C(F)(F)F)cc2)=NN=C(c2ccc(C(F)(F)F)cc2)N1C(=O)OCC is ___
Output: 51.1

Input: Please look up its IC50: Clc1ccc(C2=NN=C(c3ccc(Cl)cc3)NN2)cc1
Output: 51.8

Input: Any idea what IC50 was measured for COC(=O)N1N=C(c2ccc(Cl)cc2)NN=C1c1ccc(Cl)cc1 ?
Output: 49.4

Input: Which IC50 value is on record for FC(F)(F)c1ccc(C2=NN=C(c3ccc(C(F)(F)F)cc3)NN2)cc1 ?
Output: 40

====

- Tested on: A549
- EXPERIMENT: Antiproliferative activity against human A549 cells by SRB assay
- Assay type: functional, cell-based
- MEASUREMENT PARAMETERS: read-out: IC50
Label Y when IC50 is strictly below 10 µM; at or above that, label N.

Input: Given CCCOC(=O)N1N=C(c2ccccc2)NN=C1c1ccccc1 , is recorded IC50 strictly lower than 10 µM?
Output: N

Input: Lab log: compare recorded IC50 with 10 µM; is it strictly lower for O=C(Oc1ccccc1)N1C(c2ccc(C(F)(F)F)cc2)=NN=C(c2ccc(C(F)(F)F)cc2)N1C(=O)Oc1ccccc1 ?
Output: N

Input: In the record for O=C(OCC1CCCCC1)N1C(c2ccccc2)=NN=C(c2ccccc2)N1C(=O)OCC1CCCCC1 , is IC50 less than 10 µM?
Output: N

====

Listing of entries alongside the reported IC50.
- Test system: A549
- EXPERIMENT: Antiproliferative activity against human A549 cells by SRB assay
- Type: functional, cell-based
- MEASUREMENT PARAMETERS: read-out: IC50
Write down the numeric answer in µM and omit the unit.

Past entries and their recorded results:
O=C(OCCCl)N1N=C(c2ccccc2)NN=C1c1ccccc1; 101
O=S(=O)(c1ccccc1)N1N=C(c2ccc(Cl)cc2)N(S(=O)(=O)c2ccccc2)N=C1c1ccc(Cl)cc1; 51.9
CCCC1=NN(C(=O)Nc2cccc(Cl)c2)C(CCC)=NN1C(=O)Nc1cccc(Cl)c1; 1.1

Input: API: value(readout=IC50, system=A549) for record CCC(=O)N1N=C(c2ccc(C(F)(F)F)cc2)NN=C1c1ccc(C(F)(F)F)cc1
Output: 9.56
